# ASSAY NOTES: Counterscreen Assay for Enhancers of SMN2 Splice Variant Expression: Modulation of SMN1 Expression
# APPLIED CONDITIONS: HEK293 SMN1-luciferase reporter, luminescence, 30-36 h; series mostly up to 22.8 µM
Inconclusive results are not listed. The source made the active and inactive calls. Calls follow the shape of the dose curve; as a rule, active = well fitted inhibition curve with a large enough effect; inconclusive = small, poorly fitted or top-dose-only effect; inactive = flat fitted curve, though single readings scatter.
Classes used: 1 (yes) (active), 0 (no) (inactive)

COMPOUND: O=[N+]([O-])c1ccc(-c2nnc(-c3ccccc3)c(N3CCOCC3)n2)cc1
CLASS LABEL: 0 (no)
--
COMPOUND: OCCCNc1nc(-c2ccc(Cl)cc2)nnc1-c1ccc(Br)cc1
CLASS LABEL: 0 (no)
--
COMPOUND: CC(C)(C)n1nnnc1C(c1ccc2ncccc2c1)N1CCSCC1 (stereo unspecified)
CLASS LABEL: 0 (no)
--
COMPOUND: FC(F)(F)c1cccc(-c2nnc(-c3ccccc3)c(N3CCOCC3)n2)c1
CLASS LABEL: 0 (no)
--
COMPOUND: COc1ccc(-c2csc(N3CCC(c4ccccc4)CC3)n2)cc1
CLASS LABEL: 0 (no)
--
COMPOUND: Clc1ccc(-c2nnc(-c3ccccc3)c(N3CCSCC3)n2)cc1
CLASS LABEL: 0 (no)
--
COMPOUND: O=c1cc(N2CCN(c3cccc(Cl)c3)CC2)[nH]c(=O)n1C1CCCCC1
CLASS LABEL: 0 (no)
--
COMPOUND: OCCCNc1nc(-c2ccc(Br)cc2)nnc1-c1ccc(Cl)cc1
CLASS LABEL: 0 (no)
--
COMPOUND: CN(C)CCCN(C(=O)c1cccs1)c1nc(-c2ccccc2)cs1
CLASS LABEL: 0 (no)
--
COMPOUND: Cc1ccc(-c2nnc(-c3ccccc3)c(N3CCOCC3)n2)cc1
CLASS LABEL: 0 (no)
--
COMPOUND: O=C(Nc1ccc([N+](=O)[O-])cc1Cl)c1cc(Cl)ccc1O
CLASS LABEL: 1 (yes)
